Test system: HuR RRM3 (human, UniProt Q15717 243-326)
Sequence (Q15717 243-326): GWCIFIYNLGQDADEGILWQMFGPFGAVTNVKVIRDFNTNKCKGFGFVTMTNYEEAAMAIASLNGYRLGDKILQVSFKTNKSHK
Assay remarks: ITC; n=1.1; ITC: 50 mM sodium phosphate pH 7.0, 200 mM NaCl, 2 mM beta-mercaptoethanol, 298 K; NMR: 20 mM sodium phosphate pH 7.0, 200 mM NaCl, 5 mM DTT, 1 mM EDTA, 298 K
Condition details: protein: recombinant; tags: untagged (His6-GST cleaved with TEV)
Measurement name: pKd
Answers are plain numbers, as −log10 of the molar value.

Enquiry: What does the data say about its pKd? Entry: UUUGUU (ssRNA) [GU6]
Return: 4.00

Just for reference, paper PMC6344896 is where these values come from.
